Molecular target: T1, 4H3905-AA
T1 chain: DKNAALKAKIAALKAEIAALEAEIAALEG
Experiment: two-hybrid library CCmax;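 also: natural log of median RNA to DNA barcode read ratio; higher means stronger binding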
Conditions: mean of both orientations

[
  {
    "binder": "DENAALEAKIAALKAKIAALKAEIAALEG [4H1385-AA]",
    "interaction score": 2.31
  },
  {
    "binder": "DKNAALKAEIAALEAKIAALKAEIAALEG [4H3625-AA]",
    "interaction score": 2.29
  },
  {
    "binder": "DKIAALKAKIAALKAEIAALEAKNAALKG [4H2888-AA]",
    "interaction score": 1.91
  },
  {
    "binder": "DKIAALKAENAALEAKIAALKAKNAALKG [4H2736-AA]",
    "interaction score": -1.18
  }
]
